Tested on: MDA-N
METHOD SUMMARY: NCI tumour cell line growth inhibition, 48 h
Where a SMILES comes first, the peptide text is derived from it. [ ]: non-standard residue; d: D form. The star is where a group is joined. ξ: configuration not given here. ξD = NC(CC(=O)O)C(=O)O; Boc = CC(C)(C)OC(=O)*; Aib = CC(C)(N)C(=O)O; OBn = c1ccc(CO*)cc1
Recorded TGI by entry
OBSERVATION TYPE: TGI

INSERT INTO measurements (compound, observation_type, recorded_value) VALUES
  ('CCOC(=O)c1c(NC(=S)Nc2ccccc2)sc2c1CCN(C)C2', 'TGI', '> 100 µM'),
  ('CCOC(=O)c1cc(=O)c2cccc3c2n1CCS3', 'TGI', '> 100 µM'),
  ('CC(C(=O)NCNC(=O)c1ccccc1)C(=O)Nc1ccccc1 (configuration not stated)', 'TGI', '> 100 µM'),
  ('O=c1c2ccccc2n2c(-c3ccccc3O)nnc2n1-c1ccccc1', 'TGI', '> 100 µM'),
  ('COc1ccccc1NC1Oc2cc3c(cc2C(c2cc(OC)c(OC)c(OC)c2)C1C)OCO3 (configuration not stated)', 'TGI', '1.82 µM'),
  ('CC(=O)Nc1ccc(S(=O)(=O)c2nnc(NC(C)=O)s2)cc1', 'TGI', '> 100 µM'),
  ('O=C1c2ccccc2CC12Cc1cc3c(cc1C2)CCC3', 'TGI', '> 100 µM'),
  ('COc1cc(/C=C2\CCC(C)C3=C2N=c2s/c(=C/c4ccc(Cl)cc4)c(=O)n2C3c2cc(OC)c(OC)c(OC)c2)cc(OC)c1OC (configuration not stated)', 'TGI', '> 100 µM'),
  ('O=c1[nH]c2nc3ccccc3c(=O)n2/c1=C/c1ccccc1', 'TGI', '78.5 µM'),
  ('CCCCCCCCCCCCc1ccc(S(=O)(=O)O)cc1.[Cu+2]', 'TGI', '> 100 µM'),
  ('CC(C)(C)OC(=O)NC(CC(=O)OCc1ccccc1)C(=O)NC(C)(C)C(N)=O (configuration not stated) (Boc-[ξD](OBn)-[Aib]-NH2)', 'TGI', '> 100 µM'),
  ('O=C1c2cc3c(cc2CC12Cc1ccccc1C2)CCC3', 'TGI', '86.8 µM'),
  ('Cc1nc(C(N)=S)sc1C(=O)CC(=O)C(=O)Nc1ccc(Br)cc1', 'TGI', '> 100 µM'),
  ('CC(=O)OCC1OC(SC2=N/C(=C\c3ccc(Br)s3)C(=O)N2c2ccccc2)C(OC(C)=O)C(OC(C)=O)C1OC(C)=O (configuration not stated)', 'TGI', '> 100 µM'),
  ('O=C1N[C@H]2C(=O)c3c(Br)sc(Br)c3[C@H]2O1', 'TGI', '20.1 µM'),
  ('C[C@]12CC[C@H]3[C@@H](CC=C4C[C@@H](O)CC[C@@]43C)[C@@H]1C/C(=C\c1ccncc1)[C@@H]2O', 'TGI', '54.4 µM'),
  ('Fc1cc2nc3n(c2cc1F)C(c1c(F)cccc1F)SC3 (configuration not stated)', 'TGI', '> 100 µM');
